Kindly state log10 of IC50 for each of the entries shown.
Molecular target: KRAS-G12D and SOS1 (Homo sapiens, UniProt P01116, G12D)
Sequence (P01116 1-188 isoform P01116-2 G12D): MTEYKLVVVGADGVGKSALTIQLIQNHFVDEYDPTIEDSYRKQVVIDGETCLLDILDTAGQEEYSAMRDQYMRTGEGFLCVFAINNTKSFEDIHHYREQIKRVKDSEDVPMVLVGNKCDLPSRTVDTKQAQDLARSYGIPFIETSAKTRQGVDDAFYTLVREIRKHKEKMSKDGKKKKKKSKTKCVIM
Assay: Inhibition of KRAS-G12D/SOS1 binding (Cisbio binding kit, 665/615 ratio), Effect Embodiment A
Details: read-out: GTP-KRAS-G12D:SOS1 IC50
Description: Similarly, the first dilution point of the compound to be tested was its storage solution, and the solution was 3-fold diluted, with 11+0 points of dilution. Echo was used to transfer 0.2 μL gradient diluted solution of the compounds into a 384-well plate, with 2 duplicated wells for each compound, and the final concentration of DMSO was 1%. The solution was centrifuged for 1 min at 1000 rpm/min. IC50 of the compounds was fitted by Graphpad Prism 8 nonlinear regression equation: […]
Counter-ions that a name gives are not always drawn.
Could you please treat all values as log10 of IC50 in nM?

For orientation, consider the following solved cases.
{"MOLECULE": "CO[C@@H](COc1nc(N2CC3CCC(C2)N3)c2cc(Cl)c(-c3cc(O)cc4ccccc34)c(F)c2n1)CN1C2CCCC1CC2 (single isomer, unassigned)", "STUDY SYSTEM": "KRAS-G12D and SOS1 (Homo sapiens, UniProt P01116, G12D)", "NUMERIC READOUT": 1.81}
{"MOLECULE": "N=[S+]1([O-])CC2CCC(C1)N2CCCOc1nc(N2CC3CCC(C2)N3)c2cc(Cl)c(-c3cc(O)cc4ccccc34)c(F)c2n1 (single isomer, unassigned) [Compound 213a]", "STUDY SYSTEM": "KRAS-G12D and SOS1 (Homo sapiens, UniProt P01116, G12D)", "NUMERIC READOUT": 2.71}
{"MOLECULE": "Cc1cccc2cc(O)cc(-c3c(Cl)cc4c(N5CC6CCC(C5)N6)nc(N5CC(N(C)C)C5)nc4c3F)c12 (single isomer, unassigned) [Compound 47a]", "STUDY SYSTEM": "KRAS-G12D and SOS1 (Homo sapiens, UniProt P01116, G12D)", "NUMERIC READOUT": 2.32}
{"MOLECULE": "CNCCN(C)c1nc(N2CC(N(C)C)C2)nc2c(F)c(-c3cc(O)cc4ccccc34)c(Cl)cc12 (single isomer, unassigned) [Compound 16a]", "STUDY SYSTEM": "KRAS-G12D and SOS1 (Homo sapiens, UniProt P01116, G12D)", "NUMERIC READOUT": 3.54}
{"MOLECULE": "C[C@@H]1COC[C@@H](C)N1CCCOc1nc(N2C[C@H]3CC[C@@H](C2)N3)c2cc(Cl)c(-c3cc(O)cc4ccccc34)c(F)c2n1 (single isomer, unassigned) [Compound 164, dihydrochloride]", "STUDY SYSTEM": "KRAS-G12D and SOS1 (Homo sapiens, UniProt P01116, G12D)", "NUMERIC READOUT": 1.64}
{"MOLECULE": "CN1CCC[C@@]1(C)COc1nc(N2CC3CCC(C2)N3)c2cnc(-c3cc(O)cc4ccccc34)c(F)c2n1", "STUDY SYSTEM": "KRAS-G12D and SOS1 (Homo sapiens, UniProt P01116, G12D)", "NUMERIC READOUT": 1.49}
{"MOLECULE": "CN(CCN)c1nc(N2CC(N(C)C)C2)nc2c(F)c(-c3cc(O)cc4ccccc34)c(Cl)cc12 (single isomer, unassigned) [Compound 15a]", "STUDY SYSTEM": "KRAS-G12D and SOS1 (Homo sapiens, UniProt P01116, G12D)", "NUMERIC READOUT": 3.13}
{"MOLECULE": "CC[C@@H]1CN(CCCOc2nc(N3CC4CCC(C3)N4)c3cc(Cl)c(-c4cc(O)cc5ccccc45)c(F)c3n2)C[C@H](CC)O1 (single isomer, unassigned)", "STUDY SYSTEM": "KRAS-G12D and SOS1 (Homo sapiens, UniProt P01116, G12D)", "NUMERIC READOUT": 1.80}

For each listed entry, give its log10 of IC50.
1. CN(C)C1CN(c2nc(N3CC4CCC(C3)N4)c3cc(Cl)c(-c4cc(O)cc5cccnc45)c(F)c3n2)C1 (single isomer, unassigned) [Compound 45a]
2. C[C@H]1CCCN1CCCOc1nc(N2CC3CCC(C2)N3)c2cc(Cl)c(-c3cc(O)cc4ccccc34)c(F)c2n1 (single isomer, unassigned) [Compound 108b, dihydrochloride]
3. Cc1cc2c(N3CC4CCC(C3)N4)nc(OCCCN(C)C)nc2c(F)c1-c1cc(O)cc2ccccc12 (single isomer, unassigned) [Compound 149a, hydrochloride]

[3.10, 2.03, 1.60]

* * *

Reported IC50 for target or system UniProt P01116, by entry.
Answers are plain numbers, in nM.

For orientation, consider the following solved cases.
{"COMPOUND": "CCCN(C)CCCOc1nc(N2CC3CCC(C2)N3)c2cc(Cl)c(-c3cc(O)cc4ccccc34)c(F)c2n1 (single isomer, unassigned) [Compound 51a]", "UNIT TAG": "nM", "IC50": 1420}
{"COMPOUND": "CCC(COc1nc(N2CC3CCC(C2)N3)c2cc(Cl)c(-c3cc(O)cc4ccccc34)c(F)c2n1)CN1C2CCC1COC2 (single isomer, unassigned) [Compound 201a]", "UNIT TAG": "nM", "IC50": 1040}

What measured IC50 goes with Oc1cc(-c2c(Cl)cc3c(N4CC5CCC(C4)N5)nc(OCC4CCC5COCCN5C4)nc3c2F)c2ccccc2c1 (single isomer, unassigned) [Compound 264b] ?
196

* * *

Biological target: KRAS_G12D and cRAF (Homo sapiens, UniProt P01116, G12D)
Sequence (P01116 1-188 isoform P01116-2 G12D): as above
Test: Inhibition of KRAS_G12D/cRAF binding (Cisbio binding kit, 665/615 ratio), Effect Embodiment B
Conditions: read-out: GTP-KRAS-G12D:CRAF IC50
Structures can show the parent of a compound that is named as a salt.
OUTCOME MEASURE: IC50 (nM)
One number for each entry, in nM.

For orientation, consider the following solved cases.
{"COMPOUND": "C[C@@H](COc1nc(N2CC3CCC(C2)N3)c2cc(Cl)c(-c3cc(O)cc4ccccc34)c(F)c2n1)CN1C[C@@H](C)OC[C@H]1C (single isomer, unassigned)", "OUTCOME MEASURE": "IC50", "UNIT TAG": "nM", "NUMERIC READOUT": 15}
{"COMPOUND": "N#Cc1cccc2cc(O)cc(-c3c(F)cc4c(N5CC6CCC(C5)N6)nc(OCCCN5C6CCC5COC6)nc4c3F)c12 (single isomer, unassigned) [Compound 278a]", "OUTCOME MEASURE": "IC50", "UNIT TAG": "nM", "NUMERIC READOUT": 38.6}
{"COMPOUND": "CN(C)C1CN(c2nc(N3CC4(CNC4)C3)c3cc(Cl)c(-c4cc(O)cc5ccccc45)c(F)c3n2)C1 (single isomer, unassigned)", "OUTCOME MEASURE": "IC50", "UNIT TAG": "nM", "NUMERIC READOUT": 3330}
{"COMPOUND": "CN(C)C1CCC(Oc2nc(N3CC4CCC(C3)N4)c3cc(Cl)c(-c4cc(O)cc5ccccc45)c(F)c3n2)C1 (single isomer, unassigned) [Compound 70a, dihydrochloride]", "OUTCOME MEASURE": "IC50", "UNIT TAG": "nM", "NUMERIC READOUT": 592}
{"COMPOUND": "C[C@@H](COc1nc(N2CC3CCC(C2)N3)c2cc(Cl)c(-c3cc(O)cc4ccccc34)c(F)c2n1)CN1C[C@@H](C)O[C@H](C)C1 (single isomer, unassigned)", "OUTCOME MEASURE": "IC50", "UNIT TAG": "nM", "NUMERIC READOUT": 49.4}

For each listed entry, give its IC50.
1. CN1C[C@@H](F)C[C@H]1COc1nc(N2CC3CCC(C2)N3)c2cnc(-c3cc(O)cc4ccccc34)c(F)c2n1
2. CN1CC(COc2nc(N3CC4CCC(C3)N4)c3cc(Cl)c(-c4cc(O)cc5ccccc45)c(F)c3n2)C1 (single isomer, unassigned)
3. Oc1cc(-c2c(Cl)cc3c(N4CC5CCC(C4)N5)nc(OCC(CN4C5CCC4COC5)C(F)(F)F)nc3c2F)c2ccccc2c1 (single isomer, unassigned) [Compound 218a]
4. CCc1cccc2cc(O)cc(-c3c(F)cc4c(N5CC6CCC(C5)N6)nc(OC[C@@]56CCCN5C[C@H](F)C6)nc4c3F)c12 (single isomer, unassigned) [Compound 285a, dihydrochloride]
5. Oc1cc(-c2c(Cl)cc3c(N4CC5CCC(C4)N5)nc(OCC4(CN5C6CCC5COC6)CCC4)nc3c2F)c2ccccc2c1 (single isomer, unassigned) [Compound 173, dihydrochloride]
6. CN1CCC[C@H]1COc1nc(N2CC3(C)CCC(C)(C2)N3)c2cc(Cl)c(-c3cc(O)cc4ccccc34)c(F)c2n1 (single isomer, unassigned) [Compound 194a]
7. CN(C)C1CN(c2nc(N3CC4CCCC3CN4)c3cc(Cl)c(-c4cc(O)cc5ccccc45)c(F)c3n2)C1 (single isomer, unassigned)

180
78.2
579
9.12
37.9
155
2140

For each listed entry, give its IC50.
1. CN(C)CCCOc1nc(N2C[C@H]3CC[C@@H](C2)N3)c2cnc(-c3cc(O)cc4ccccc34)c(F)c2n1
2. CN(C)C1CN(c2nc(N3CCCNCC3)c3cc(Cl)c(-c4cc(O)cc5ccccc45)c(F)c3n2)C1 (single isomer, unassigned)
3. CN(C)C(C)(C)COc1nc(N2CC3CCC(C2)N3)c2cc(Cl)c(-c3cc(O)cc4ccccc34)c(F)c2n1 (single isomer, unassigned) [Compound 104, dihydrochloride]
4. Oc1cc(-c2c(Cl)cc3c(N4CC5CCC(C4)N5)nc(OCC(F)CN4C5CCC4COC5)nc3c2F)c2ccccc2c1 (single isomer, unassigned) [Compound 179b]
5. C[C@@H](COc1nc(N2CC3CCC(C2)N3)c2cc(Cl)c(-c3cc(O)cc4ccccc34)c(F)c2n1)CN1CCO[C@@H](C)C1 (single isomer, unassigned)
6. C[C@@H](COc1nc(N2CC3CCC(C2)N3)c2cc(Cl)c(-c3cc(O)cc4ccc(F)c(F)c34)c(F)c2n1)CN1C2CCC1COC2 (single isomer, unassigned)
7. Oc1cc(-c2c(Cl)cc3c(N4CC5CCC(C4)N5)nc(OCCCN4C5COCC4C5)nc3c2F)c2ccccc2c1 (single isomer, unassigned)
8. Oc1cc(-c2c(Cl)cc3c(N4CC5CCC(C4)N5)nc(OCCN4CCCC(F)C4)nc3c2F)c2ccccc2c1 (single isomer, unassigned) [Compound 267a]

102
22600
248
134
28.5
18.3
73.7
259

What measured IC50 goes with CN1CCC[C@H]1COc1nc(N2CCN(C(=O)CN)[C@@H](CC#N)C2)c2cc(Cl)c(-c3cc(O)cc4ccccc34)c(F)c2n1 (single isomer, unassigned) ?
312
